Tested on: T-47D breast
Assay: NCI tumour cell line growth inhibition, 48 h
Would you kindly list TGI for each of these compounds?

For the compound shown here, Cc1cc(C)nc(NS(=O)(=O)c2ccc(Nc3c4ccccc4nc4ccc(C(=O)Nc5ccc(S(=O)(=O)N=C(N)N)cc5)cc34)cc2)n1 , give the reported TGI. > 100 µM

Moving on to NC(N)=N/N=C(/c1ccccc1)c1ccccc1F 41.3 µM

And then CC(CC=O)Nc1nn2c(=O)c3ccccc3nc2s1 (stereo unspecified) , what is it? > 100 µM

Follow-up entry: Cc1ccc(C2=C(Cl)C(=O)C(c3ccc(C)cc3)=C(Cl)C2=O)cc1 > 100 µM

Try O=C1C2CC[C@@H]3C(=O)C(Cl)(Cl)[C@@H]3CCC2C1(Cl)Cl (stereo partly specified) next. > 100 µM

For COC(=O)C(=O)C(C(=O)C(=O)Nc1ccc(C)c(C)c1)c1nc2ccc([N+](=O)[O-])cc2[nH]c1=O (stereo unspecified) then? > 100 µM

Now consider O=C(O)Cn1ccc(=O)c2cc([N+](=O)[O-])ccc21 and answer again. > 100 µM

Same again, this time with CN(C)c1ccc(C2CC(C)(O)Oc3cc4c(cc32)OCO4)cc1 (stereo unspecified) > 100 µM

Please give the result for Clc1cc2ncn(C3CCCCO3)c2cc1Cl (stereo unspecified) too. > 100 µM

Next compound: COc1ccc(N=Nc2c(N)nn3c(SC)c(C#N)c(N)nc23)cc1 4.3 µM

Next entry: Oc1ccc(SCc2cc(O)ccc2O)cc1 30.5 µM

====

Please go through the items and note down their TGI.
Test system: IGROV1 ovarian
Experiment: NCI tumour cell line growth inhibition, 48 h

Form field: reported TGI of O=C(O)CCC1NC(/C(=C/c2ccccc2O)NC(=O)c2ccccc2)OC1=O (stereo not drawn) > 100 µM

How about this compound: CCCCCCCCCCCCCCC(C)CCC(=O)O (stereo not drawn) > 100 µM

And the next one, COC(=O)c1sc(=NC(=S)N2CCCCC2)sc1C(=O)OC ? > 100 µM

====

System: RXF 393 renal
Assay: NCI tumour cell line growth inhibition, 48 h
Would you mind telling me the reported TGI of each entry?

# get_value(readout='TGI', item= C=CCN1C(=O)CC(=O)N(NC2=NNC3(C(=O)N2)c2ccccc2-c2ccccc23)C1=S ) > 100 µM

And for COC(=O)[C@]1(C)CCC[C@]2(C)[C@@H]1CCC13C[C@@H](C=CO1)[C@@H](C)CC32O (stereo not given in full) ? > 100 µM

What do we get for CC(CC=O)Nc1nn2c(=O)c3ccccc3nc2s1 (stereo not given) ? > 100 µM

Let us now turn to COC(=O)C1CCC(=O)N1/C(C)=N/NC(=O)Nc1ccc(Cl)c(Cl)c1 (stereo not given) > 100 µM

Thanks! And CC(C)=Nn1cnc2c1NC(C)(C)N=C2C(N)=O ? > 10 µM

====

Record form. Attribute: TGI. Fill in for each entry.
Tested on: T-47D breast
Assay: NCI tumour cell line growth inhibition, 48 h

Query: TGI; subject: CCCCCCCCCCCCOC1C(C(CC(=O)N2CCN(Cc3ccc4c(c3)OCO4)CC2)NS(=O)(=O)c2cc(Cl)cc(Cl)c2)OC2OC(C)(C)OC21 (stereo unspecified) > 100 µM

One more compound: N#CCC1(n2cc(-c3ncnc4[nH]ccc34)cn2)CN(C2CCN(C(=O)c3ccnc(C(F)(F)F)c3F)CC2)C1 > 100 µM

Ok, now CCN(CC)CCNc1ccc([N+](=O)[O-])c2sc3cc(Cl)ccc3c(=O)c12 > 100 µM

What about this compound? C=CCN=C(N/N=C/c1ccc([N+](=O)[O-])o1)NS(=O)(=O)c1cc(C(=O)Nc2ccccc2)c(Cl)cc1SCC(N)=O > 100 µM

Ok, now NC(Cc1ccccc1CP(=O)(O)O)C(=O)O (stereo unspecified) > 100 µM

Now the same for COc1ccc(Cc2nc3cc(OC)c(OC)cc3c(=O)[nH]2)cc1 > 100 µM

These entries and their values trace back to PubChem BioAssay (NCI).
